Source listed as patent US20140206681A1.

# target system: BTK enzyme (recombinant full-length BTK, hBTK) (Homo sapiens)
# Construct: recombinant protein from baculovirus-transfected Sf9 cells: full-length BTK, 6HIS-tag cleaved; 6HIS (cleaved yes); made in house; host or cells: baculovirus-transfected Sf9 cells
# Sequence (Q06187 whole entry): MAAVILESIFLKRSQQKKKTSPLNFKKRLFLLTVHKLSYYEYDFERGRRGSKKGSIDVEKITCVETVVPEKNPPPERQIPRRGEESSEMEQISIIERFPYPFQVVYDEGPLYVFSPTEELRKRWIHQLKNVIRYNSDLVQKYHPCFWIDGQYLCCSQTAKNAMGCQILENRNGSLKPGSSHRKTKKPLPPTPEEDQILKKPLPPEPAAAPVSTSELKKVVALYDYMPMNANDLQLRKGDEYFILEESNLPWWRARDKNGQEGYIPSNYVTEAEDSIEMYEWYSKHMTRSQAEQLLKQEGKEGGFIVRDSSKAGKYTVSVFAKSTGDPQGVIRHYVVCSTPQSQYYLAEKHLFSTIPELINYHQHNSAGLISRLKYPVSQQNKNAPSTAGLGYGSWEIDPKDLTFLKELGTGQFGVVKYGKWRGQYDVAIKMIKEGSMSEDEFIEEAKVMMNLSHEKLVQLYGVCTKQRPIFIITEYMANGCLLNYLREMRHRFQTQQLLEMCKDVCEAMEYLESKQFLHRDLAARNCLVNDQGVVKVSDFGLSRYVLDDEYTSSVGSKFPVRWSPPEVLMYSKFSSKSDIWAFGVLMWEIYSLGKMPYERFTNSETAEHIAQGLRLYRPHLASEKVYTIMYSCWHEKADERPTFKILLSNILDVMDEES
# measurement description: BTK enzyme activity assay, LANCE TR-FRET
# Assay type: biochemical
# protocol conditions: 50 pM hBTK, 2 μM biotin-A5-peptide, 25 μM ATP; 60 min compound & enzyme incubation; read-out: IC50 BTK activity value
Examples of molecules with documented IC50 follow.
Give the value, in units of nM, as a plain number.

Check out these entries, answers already filled in.
| chem smiles | value measured |
| --- | --- |
| Nc1ncc(F)n2c([C@@H]3CC[C@H]4CCC(=O)N4C3)nc(-c3ccc(C(=O)Nc4cc(C5CC5)ccn4)cc3F)c12 | 1.3 |
| Nc1ncc(Cl)n2c([C@@H]3CC[C@H]4CCC(=O)N4C3)nc(-c3ccc(C(=O)Nc4cc(C(F)(F)F)ccn4)cc3OC3CC3)c12 | 0.5 |
| CCOc1cc(C(=O)Nc2cc(C3CC3)ccn2)c(F)cc1-c1nc([C@@H]2CC[C@H]3CCC(=O)N3C2)n2c(Cl)cnc(N)c12 | 0.78 |
| CCOc1cc(C(=O)Nc2cc(C(F)(F)F)ccn2)ccc1-c1nc([C@@H]2CC[C@H]3CC(C)(C)C(=O)N3C2)n2ccnc(N)c12 | 0.54 |
| CNc1nccn2c([C@@H]3CC[C@H]4CCC(=O)N4C3)nc(-c3ccc(C(=O)Nc4cc(C(F)(F)F)ccn4)cc3)c12 | 12.7 |

Next molecule, IC50 to be filled in.
Reported IC50 for `Nc1nccn2c([C@H]3CC[C@@H]4CCCC(=O)N4C3)nc(-c3ccc(C(=O)Nc4cc(C(F)(F)F)ccn4)cc3F)c12` was 0.095
